Where these numbers come from: PubChem BioAssay

The compounds listed here are annotated with their composite z-score.
Assay: binders of probe aHhip on microarray, primary screen, stem cell growth factor project, biochemical, small-molecule microarray, fluorescence 635/667 (AID 1087);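 note: score merges spot fluorescence at 667nm with spot signal to noise ratio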
Settings: higher = more signal
Respond with the number and no other words.

sample_smiles | composite z-score
C=CCOC(=O)[C@@H]1[C@H]2C(=O)O[C@H](c3ccccc3)[C@H](c3ccccc3)N2[C@H](c2ccc(OCCOC(=O)[C@@H]3C[C@@H]4C(=O)N[C@@H](CCCCNC(C)=O)C(=O)N4[C@@H]3c3ccc(O)cc3)cc2)[C@@]12C(=O)Nc1ccc(I)cc12 | -0.0346

In: Reported composite z-score for `O=C(CS)NCCCCCNC(=O)[C@@H]1C[C@@H]2C(=O)N3CCC[C@H]3C(=O)N2[C@@H]1c1ccc(O)cc1` : what is it?
Out: 0.127

In: Reported composite z-score for `CCCC=C(CCC)[C@@H](NS(=O)(=O)CC)c1ccccc1` : what is it?
Out: -0.0645
